target: human STING (hSTING) (Homo sapiens, UniProt Q86WV6); experiment: Inhibition test of intracellular human STING (hSTING) pathway using SEAP reporter cells (HEK-Blue ISG), stimulation with Compound 3; conditions: Compound 3 10 nM stimulation, 21 hours, read-out: hSTING inhibitory activity
Sequence (Q86WV6 whole entry H232R): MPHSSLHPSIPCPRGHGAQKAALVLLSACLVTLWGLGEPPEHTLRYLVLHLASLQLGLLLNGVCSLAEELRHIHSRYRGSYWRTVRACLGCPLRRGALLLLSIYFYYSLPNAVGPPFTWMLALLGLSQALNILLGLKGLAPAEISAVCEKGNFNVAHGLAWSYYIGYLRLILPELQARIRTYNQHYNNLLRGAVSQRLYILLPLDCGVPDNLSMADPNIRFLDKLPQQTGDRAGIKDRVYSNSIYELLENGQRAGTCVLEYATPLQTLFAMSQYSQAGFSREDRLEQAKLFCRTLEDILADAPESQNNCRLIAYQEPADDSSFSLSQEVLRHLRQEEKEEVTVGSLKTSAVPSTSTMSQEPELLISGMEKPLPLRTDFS
pIC50: −log10 of the molar value.
Entries annotated with measured pIC50

molecule | pIC50
COc1cccc2[nH]c(Nc3c[nH]c4ccc(Br)nc34)nc12 | 5.00 to 6.00
CC(C)n1c(Nc2c[nH]c3ccc(Cl)nc23)nc2cc(Cl)c(Cl)cc21 | 5.00 to 6.00
N#Cc1cccc2[nH]c(Nc3c[nH]c4ccc(Cl)nc34)nc12 | ≤ 5.00
Clc1ccc2[nH]cc(Nc3nc4c(C5=CCOCC5)cccc4[nH]3)c2n1 | 5.00 to 6.00
CC(C)(O)Cn1c(Nc2c[nH]c3ccc(Cl)cc23)nc2cc(C(F)(F)F)ccc21 | 5.00 to 6.00

From: patent US20240279205A1
